From: ChEMBL document CHEMBL1129383

assay: Immunosuppressive activity on mouse allogenic MLR in vitro; type: functional
Test Readout: IC50 (nM)

* CCCCCCCCCCCCC(N)(CO)CO | 270
* CCCCCCCCCCCCC/C=C/C[C@H]1OC(=O)[C@](N)(CO)[C@H]1O | 10
* CCCCCCCCCCCCC/C=C/C[C@H]1OC(=O)[C@](N)(CO)[C@@H]1O | 3.6
* CCCCCCCCCCCCCCCCCCC(N)(CO)CO | 12
* CCCCCCCCCCCCCCCCCCCCCCC(N)(CO)CO | 1600
* CCCCCCCCCCCCCCCCCCCCC(N)(CO)CO | 190
* CCCCCCCCCCCCCCC(N)(CO)CO | 5.9
* CCCCCCCCCCCCCC(N)(CO)CO | 12
* CCCCCCCCCCCCCCCC[C@@H](O)[C@H](O)C(N)(CO)CO | 320
* CCCCCCC(O)CCCCCCCCC[C@@H](O)[C@H](O)C(N)(CO)CO (some centres undefined) | 1630
* CCCCCCCCCCCCC/C=C/C[C@@H](O)[C@H](O)C(N)(CO)CO | 56
* CCCCCCC(O)CCCCCC/C=C/C[C@@H](O)[C@H](O)[C@@](N)(CO)C(=O)O (some centres undefined) | 6.3
* CCCCCCCCCCCCC/C=C/C[C@@H](O)[C@H](O)[C@@](N)(CO)C(=O)O | 1.2
* CCCCCCCCCCCCCCCC(N)(CO)CO | 2.9
* CCCCCCCCC(N)(CO)CO | 3700
* CCCCCCC(O)CCCCCC/C=C/C[C@@H](O)[C@H](O)C(N)(CO)CO (some centres undefined) | 4.7
* CCCCCCC(=O)CCCCCC/C=C/C[C@@H](O)[C@H](O)[C@@](N)(CO)C(=O)O | 3
* CCCCCCCCCCCCCCCCC(N)(CO)CO | 10
* CCCCCCCCCCC(N)(CO)CO | 440

* * *

test system: Rattus norvegicus; test: Mean survival time of rats after skin allograft (intraperitoneal administration) at 1 mg/kg; assay type: functional
Respond with yes for MST values of 8 days and above, no for values below.

- CCCCCCCCCCCCCCC(N)(CO)CO: yes
- C/C=C/C[C@@H](C)[C@@H](O)[C@H]1C(=O)N[C@@H](CC)C(=O)N(C)CC(=O)N(C)[C@@H](CC(C)C)C(=O)N[C@@H](C(C)C)C(=O)N(C)[C@@H](CC(C)C)C(=O)N[C@@H](C)C(=O)N[C@H](C)C(=O)N(C)[C@@H](CC(C)C)C(=O)N(C)[C@@H](CC(C)C)C(=O)N(C)[C@@H](C(C)C)C(=O)N1C: no
- CCCCCCC(O)CCCCCCCCC[C@@H](O)[C@H](O)C(N)(CO)CO (stereo partly drawn): yes
- CCCCCCCCCCCCCCCCCCC(N)(CO)CO: yes
- CCCCCCCCCCCCCCCCC(N)(CO)CO: yes

* * *

tested on: Rattus norvegicus; test: Mean survival time of rats after skin allograft (intraperitoneal administration) at 0.1 mg/kg; assay type: functional
Item-by-item account of MST
Test Readout: MST (days)

* CCCCCCC(O)CCCCCC/C=C/C[C@@H](O)[C@H](O)[C@@](N)(CO)C(=O)O (some centres undefined) | 7.6
* CCCCCCCCCCCCCCCCC(N)(CO)CO | 10.5
* CCCCCCCCCCCCC/C=C/C[C@@H](O)[C@H](O)[C@@](N)(CO)C(=O)O | 9
* CCCCCCCCCCCCCCC(N)(CO)CO | 11.2

* * *

tested on: Rattus norvegicus; assay: Mean survival time of rats after skin allograft (intraperitoneal administration) at 0.3 mg/kg; type: functional
Respond with True for MST values of 10 days and above, False for values below.

* CCCCCCCCCCCCCCCCCCC(N)(CO)CO | True
* CCCCCCCCCCCCCCC(N)(CO)CO | True
* CCCCCCCCCCCCC/C=C/C[C@@H](O)[C@H](O)[C@@](N)(CO)C(=O)O | True
* CCCCCCCCCCCCCCCCC(N)(CO)CO | True
* CCCCCCC(O)CCCCCC/C=C/C[C@@H](O)[C@H](O)[C@@](N)(CO)C(=O)O (stereo not given in full) | False

* * *

Item-by-item account of MST
system: Rattus norvegicus; assay: Mean survival time of rats after skin allograft (intraperitoneal administration) at 1 mg/kg; assay type: functional
Test Readout: MST

- CCCCCCCCCCCCC/C=C/C[C@@H](O)[C@H](O)C(N)(CO)CO: 8.2 days
- CCCCCCCCCCCCCCCC[C@@H](O)[C@H](O)C(N)(CO)CO: 8.2 days
- CCCCCCC(O)CCCCCC/C=C/C[C@@H](O)[C@H](O)C(N)(CO)CO (stereo partly drawn): 8.2 days
